Entries and their pIC50 values follow.
Tested on: human dendritic cells cultured with human allogenic T cells
METHOD NOTES: Effect on the ability of human dendritic cells to induce the growth of allogenic T cells ([3H]-thymidine incorporation)
Assay type: cell-based
CONDITION NOTES: dendritic cells treated 3 days with test compound and TNF-α, then 5 days with allogenic T cells; read-out: IC50 (inhibition of DNA synthesis of lymphocytes)
pIC50: −log10 of the molar value.
MEASURED ENDPOINT: pIC50

>>> result("COc1ccc(-c2ccnc3nc(NC(=O)N[C@@H](C)c4cccc(OC)c4)nn23)cc1")
6.20
>>> result("COc1ccc(-c2ccnc3nc(NC(=O)N[C@H](C(=O)NCCN(C)C)C(C)C)nn23)cc1")
5.57
>>> result("COc1ccc(-c2ccnc3nc(NC(=O)NCCC(=O)NCC4CCCO4)nn23)cc1 (centres unmarked)")
6.16
>>> result("CC(=O)c1cccc(NC(=O)Nc2nc3nccc(-c4cccs4)n3n2)c1")
6.19
>>> result("COc1ccc(-c2ccnc3nc(NC(=O)N[C@@H](C)CCCC(C)C)nn23)cc1")
6.81

* * *

Test system: MHC class I molecules of human peripheral blood-derived dendritic cells
METHOD NOTES: Effect on expression of MHC class I molecules from human peripheral blood-derived dendritic cells
Format: cell-based
CONDITION NOTES: dendritic cells matured with TNF-α, 3 days; read-out: EC50 (reduction of 50% of the number of cells wherein MHC class I molecules were highly expressed)
pEC50: −log10 of the molar value.
MEASURED ENDPOINT: pEC50

>>> result("CC(C)NC(=O)Nc1nc2nccc(-c3cccs3)n2n1")
6.32
>>> result("O=C(Nc1ccccc1)Nc1nc2nccc(-c3cccs3)n2n1")
6.34
>>> result("COc1ccc(-c2ccnc3nc(NC(=O)N[C@H](C(=O)N4CCN(C)CC4)C(C)C)nn23)cc1")
5.55
>>> result("COc1ccc(-c2ccnc3nc(NC(=O)N[C@H]4CC[C@H](O)CC4)nn23)cc1")
6.70
>>> result("COc1ccc(-c2ccnc3nc(NC(=O)N[C@@H](C)C(=O)OC(C)(C)C)nn23)cc1")
6.68
>>> result("O=C(Nc1nc2nccc(-c3cccs3)n2n1)NC1CCCCC1")
6.18
>>> result("COc1ccc(-c2ccnc3nc(NC(=O)NC4CCCCC4)nn23)cc1")
6.89
>>> result("O=C(Nc1nc2nccc(-c3ccc(O)cc3)n2n1)NC1CCCCC1")
6.80
>>> result("COc1ccc(-c2ccnc3nc(NC(=O)NC(C)C)nn23)cc1")
6.32
>>> result("COc1ccc(-c2ccnc3nc(NC(=O)NC4CCCC4)nn23)cc1")
6.66
>>> result("COc1ccc(-c2ccnc3nc(NC(=O)NC4CCN(Cc5ccccc5)CC4)nn23)cc1")
6.28
>>> result("COc1ccc(-c2ccnc3nc(NC(=O)NCCCN4CCOCC4)nn23)cc1")
5.65
>>> result("COc1ccc(-c2ccnc3nc(NC(=O)NCc4cccnc4)nn23)cc1")
6.27
>>> result("COc1ccc(-c2ccnc3nc(NC(=O)N[C@@H](C)c4ccccc4)nn23)cc1")
6.66
>>> result("COc1ccc(-c2ccnc3nc(NC(=O)NC(C(=O)NCC4CCCO4)C(C)C)nn23)cc1 (centres unmarked)")
6.17
>>> result("COc1ccc(-c2ccnc3nc(NC(=O)NCc4ccccc4)nn23)cc1")
6.54
>>> result("COc1ccc(-c2ccnc3nc(NC(=O)NC(C(=O)OC(C)(C)C)C(C)C)nn23)cc1 (centres unmarked)")
6.92

* * *

Tested on: mouse splenic cells
METHOD NOTES: Inhibitory action on blastogenesis of mouse splenic cells ([3H]-thymidine incorporation)
Assay type: cell-based
CONDITION NOTES: 25 μg/ml Escherichia coli-derived lipopolysaccharide, 72 hours; read-out: Lymphocyte blastogenesis IC50 (μM), LPS stimulation
Entries and their IC50 values follow.
MEASURED ENDPOINT: IC50 (µM)

>>> result("CC(C)NC(=O)Nc1nc2nccc(-c3cccc(OCCC4OCCCO4)c3)n2n1 [Example 183]")
0.14
>>> result("CC(C)NC(=O)Nc1nc2nccc(-c3cccc(OCC4CCCO4)c3)n2n1 (stereo not shown) [Example 184]")
0.29
>>> result("COc1ccc(-c2ccnc3nc(NC(=O)N[C@@H](C)CCCC(C)C)nn23)cc1 [Example 160]")
0.04
>>> result("COc1ccc(-c2ccnc3nc(NC(=O)N[C@@H](C)c4cccc(OC)c4)nn23)cc1 [Example 132]")
0.06
